Just for reference, the DeepSol protein solubility set is where these values come from.

Test summary: soluble on expression in E. coli; label from the status in PepcDB or PDB records
Assay endpoint: soluble on expression in E. coli

SQYSAQRDLRMSPGDTVELGGYHFLFDGAKHHEGPNYTSDKGSIHVSRDGKEIATLHPEKRLYTVQSSMMTEAGIDAGFTRDLYVALGEPLENGAWAVRVHVKPFVR not soluble
MGSDKIHHHHHHMEKEFRILNIVSAKIWGGGEQYVYDVSKALGLRGCTMFTAVNKNDELMRRRFSEVSSVFTTRLHTFNGLFSLYALTRFIRENHISHLMIHTGKIAALSVLLKKLTGVRLIFVKHNVVANKTDFYHRLIQKNTDRFICVSRLVYDVQTADNPFKEKYRIVHNGIDTGRFPPSQEKPDSRFFTVAYAGRISPEKGLENLIEACVILHRKYPQIRLKLAGHGHPDYMCRLKRGVSASGAEPFVSFEGFTEKLASFYRQSDVVVLPSLVPEAFGLSLCEAMYCRTAVISNTLGAQKEIIEHHQSGILLDRLTPESLADEIERLVLNPEAKNALATAGHQCVAARFTINHTADKLLDAI not soluble
MHHHHHHSSGRENLYFQGERVFGCDLGEHLLNSGFEVPQVLQSCTAFIERYGIVDGIYRLSGVASNIQRLRHEFDSEHVPDLTKEPYVQDIHSVGSLCKLYFRELPNPLLTYQLYEKFSDAVSAATDEERLIKIHDVIQQLPPPHYRTLEFLMRHLSLLADYCSITNMHAKNLAIVWAPNLLRSKQIESACFSGTAAFMEVRIQSVVVEFILNHVDVLFSGRISMAMQE soluble
MGHHHHHHSHMLKKAKMAKDRKSRKKPVEVKKGKDPNAPKRPMSAYMLWLNASREKIKSDHPGISITDLSKKAGEIWKGMSKEKKEEWDRKAEDARRDYEKAMKEYEGGRG soluble

###

Test summary: soluble on expression in E. coli; label from the status in PepcDB or PDB records
Assay endpoint: soluble on expression in E. coli

MKTFSDRWRQLDWDDIRLRINGKTAADVERALNASQLTRDDMMALLSPAASGYLEQLAQRAQRLTRQRFGNTVSFYVPLYLSNLCANDCTYCGFSMSNRIKRKTLDEADIARESAAIREMGFEHLLLVTGEHQAKVGMDYFRRHLPALREQFSSLQMEVQPLAETEYAELKQLGLDGVMVYQETYHEATYARHHLKGKKQDFFWRLETPDRLGRAGIDKIGLGALIGLSDNWRVDSYMVAEHLLWLQQHYWQSRYSVSFPRLRPCTGGIEPASIMDERQLVQTICAFRLLAPEIELSLSTRESPWFRDRVIPLAINNVSAFSKTQPGGYADNHPELEQFSPHDDRRPEAVAAALTAQGLQPVWKDWDSYLGRASQRL not soluble
AHHHHHHGSKVYAPATIANFGPGFDVFGLAIETPRDTVIAKESDDFRIEVEGYKVPENDENVALVAAKALFKLVGEEGGIYLKLKKGIRPKSGLGSSGASSIAGAVAAARILGVEDDEIIIRAALEGERKASGSPHGDNVVPSYYGNFTIVESLNPLRVHNIEVDFKVVVILPSVEVPTSEARKVLPKKVPLKDAVKNIALASSLVLALKEGNLEEVGRLLEDHLALPYRLSLVPWFPKVKEAAKEAGAYGVMISGSGPAVFALGENLKEIGKAMKEAFESFGIEAEYWVTKVGRGAKWC not soluble
